- Assay target: Small conductance calcium-activated potassium channel (Rattus norvegicus) (UniProt P70604+P70606+P70605)
- Assay info: The ratio of compound concentrations and dequalinium that cause 50% inhibition of the after-hyperpolarization
- Type: functional
Give 1 when the value for EMR is at least 0.2. Give -1 when it is less.

# Substance smiles, Class
measured = [
    ("c1cc2nc(c1)-c1ccc(cc1)C[n+]1ccc(c3ccccc31)NCc1ccc(cc1)Cc1ccc(cc1)CNc1cc[n+](c3ccccc13)Cc1ccc-2cc1", 1),
    ("c1ccc2c(c1)c1cc[n+]2Cc2ccc3c(c2)Cc2cc(ccc2-3)C[n+]2ccc(c3ccccc32)NCCCCCCCCCCN1", -1),
    ("c1ccc2c(c1)c1cc[n+]2Cc2ccc(cc2)CCc2ccc(cc2)C[n+]2ccc(c3ccccc32)NCCCCCCCCCCN1", 1),
    ("c1ccc2c(c1)c1cc[n+]2CCCCCCCCCC[n+]2ccc(c3ccccc32)NCc2ccc(cc2)-c2ccc(cc2)CN1", 1),
    ("Nc1cc[n+](Cc2ccc(Cc3ccc(C[n+]4ccc(N)c5ccccc54)cc3)cc2)c2ccccc12", 1),
    ("Nc1cc[n+](Cc2cccc(C[n+]3ccc(N)c4ccccc43)c2)c2ccccc12", 1),
    ("Nc1cc[n+](Cc2ccc(/C=C\\c3ccc(C[n+]4ccc(N)c5ccccc54)cc3)cc2)c2ccccc12", 1),
    ("COc1c2cccc1C[n+]1ccc(c3ccccc31)NCc1ccc(cc1)CNc1cc[n+](c3ccccc13)C2", -1),
]

###

- Assay target: Small conductance calcium-activated potassium channel (Rattus norvegicus) (UniProt P70604+P70606+P70605)
- Assay info: The ratio of compound concentrations and dequalinium that cause 50% inhibition of the after-hyperpolarization
- Type: functional

# Compound, EMR
rows = [
    ("Nc1cc[n+](Cc2cccc(-c3cccc(C[n+]4ccc(N)c5ccccc54)c3)c2)c2ccccc12", 0.55),
    ("Oc1c2cc(I)cc1C[n+]1ccc(c3ccccc31)NCc1ccc(cc1)CNc1cc[n+](c3ccccc13)C2", 0.16),
    ("Nc1cc[n+](Cc2ccc(-c3ccc(C[n+]4ccc(N)c5ccccc54)cc3)cc2)c2ccccc12", 0.4),
    ("c1ccc2c(c1)c1cc[n+]2Cc2ccc(cc2)Cc2ccc(cc2)C[n+]2ccc(c3ccccc32)NCCCCCCCCCCN1 [UCL-1530]", 0.16),
    ("Oc1c2cccc1C[n+]1ccc(c3ccccc31)NCc1ccc(cc1)CNc1cc[n+](c3ccccc13)C2", 0.14),
    ("Nc1cc[n+](Cc2ccc(C[n+]3ccc(N)c4ccccc43)cc2)c2ccccc12", 3.7),
    ("Cc1cc(N)c2ccccc2[n+]1CCCCCCCCCC[n+]1c(C)cc(N)c2ccccc21.[Cl-].[Cl-] [DEQUALINIUM CHLORIDE]", 1),
    ("c1ccc2c(c1)c1cc[n+]2Cc2ccc(cc2)-c2ccc(cc2)C[n+]2ccc(c3ccccc32)NCc2ccc(cc2)-c2ccc(cc2)CN1", 0.89),
    ("c1ccc2c(c1)c1cc[n+]2Cc2ccc(cc2)-c2ccc(cc2)C[n+]2ccc(c3ccccc32)NCc2ccc(cc2)Cc2ccc(cc2)CN1", 0.26),
    ("c1ccc2c(c1)c1cc[n+]2Cc2ccc(cc2)C[n+]2ccc(c3ccccc32)NCc2ccc(cc2)CN1", 0.05),
    ("C1=C\\c2ccc(cc2)C[n+]2ccc(c3ccccc32)NCCCCCCCCCCNc2cc[n+](c3ccccc23)Cc2ccc/1cc2", 0.29),
    ("c1cc2cc(c1)CNc1cc[n+](c3ccccc13)Cc1ccc(cc1)C[n+]1ccc(c3ccccc31)NC2", 0.18),
]
